Collected from the literature: pIC50 of various compounds toward MALT1 (Homo sapiens, UniProt Q9UDY8).
pIC50: −log10 of the molar value.
reportedProperty: pIC50

Below, 5 compounds whose answers are already recorded.
N#Cc1cc(NC(=O)c2cnn(-c3ncnc4scnc34)c2C(F)(F)F)cnc1-n1nccn1; 7.12
Cc1c(-n2ncc(C(=O)Nc3cnc(-n4nccn4)c(Cl)c3)c2C(F)(F)F)ccc(F)c1F; 6.77
O=C(Nc1cnc(-n2ncc(CO)n2)c(Cl)c1)c1cnn(-c2cccc3ncccc23)c1C(F)(F)F; 7.68
Cc1cnc(N2CC(O)C2)cc1-n1ncc(C(=O)Nc2cnc(-n3nccn3)c(Cl)c2)c1C(F)(F)F; 5.89
COc1cc(F)ccc1-n1ncc(C(=O)Nc2cnc(-n3nccn3)c(C#N)c2)c1C(F)(F)F; 7.05

A: Cc1ncn(-c2ncc(NC(=O)c3cnn(-c4cccc5ccncc45)c3C(F)(F)F)cc2Cl)n1
B: O=C(Nc1ccnc(C(F)(F)F)c1)c1cnn(-c2ccc(Cl)n3nccc23)c1C(F)(F)F
// pick min by pIC50: A , B Mark your answer with the label of the selected entry.
A

###

pIC50: −log10 of the molar value.
Collected from the literature: pIC50 of various compounds toward UniProt Q9UDY8.
reportedProperty: pIC50

Below, 5 compounds whose answers are already recorded.
C[C@H](O)c1ncc(-n2ncc(C(=O)Nc3cnc(-n4nccn4)c(Cl)c3)c2C(F)(F)F)c2ccccc12 (single isomer, unassigned); 7.89
Cc1ncnn1-c1ncc(NC(=O)c2cnn(-c3cncc4ccccc34)c2C(F)(F)F)cc1Cl; 6.56
N#Cc1cc(NC(=O)c2cnn(-c3cncc4ccccc34)c2C(F)(F)F)ccc1-n1ccnn1; 7.23
O=C(Nc1cnc(-n2nccn2)c(Cl)c1)c1cnn(-c2nccn3nccc23)c1C(F)(F)F; 7.60
CO[C@H](C)c1c(NC(=O)Nc2cnc(-n3nccn3)c(C(F)(F)F)c2)cnc(N)c1Br (single isomer, unassigned); 6.54

A: N#Cc1cc(NC(=O)c2cnn(-c3cnc4ccccn34)c2C(F)(F)F)cnc1-n1nccn1
B: N#Cc1cc(NC(=O)c2cnn(-c3cccc4c3CCN4)c2C(F)(F)F)cnc1-n1nccn1
C: Cc1cnn(-c2nc(C)c(NC(=O)c3cnn(-c4cccc5c(=O)[nH]ccc45)c3C(F)(F)F)cc2Cl)n1
Sort by pIC50, descending. Quick reminder: the answer is the labels in the order asked.
C, A, B

P: N#Cc1cc(NC(=O)c2cnn(-c3cccc4ncsc34)c2C(F)(F)F)cnc1-n1nccn1
Q: N#Cc1ccc(-n2ncc(C(=O)Nc3cnc(-n4nccn4)c(Cl)c3)c2C(F)(F)F)cc1
R: O=C(Nc1cnc(-n2nccn2)c(Cl)c1)c1cnn(-c2ccncc2)c1C(F)F
S: O=C(Nc1cnc(-n2nccn2)c(Cl)c1)c1cnn(-c2ccc(F)cc2C(F)(F)F)c1C(F)(F)F
T: Cc1ncc(-n2ncc(C(=O)Nc3cnc(-n4nccn4)c(Cl)c3)c2C(F)(F)F)c2ccsc12
Rank the items in ascending order with respect to pIC50. Quick reminder: the answer is the labels in the order asked.
R, S, T, Q, P
(R: 5.53, S: 6.00, T: 6.67, Q: 6.88, P: 7.96)

P: N#Cc1cc(NC(=O)c2cnn(-c3cccc4cn[nH]c34)c2C(F)(F)F)cnc1-n1nccn1
Q: CN1CCOc2c1cccc2-n1ncc(C(=O)Nc2cnc(-n3nccn3)c(C#N)c2)c1C(F)(F)F
// pick min by pIC50: P , Q Mark your answer with the label of the selected entry.
Q
(Q: 6.72, P: 6.96)

P: Cc1c(F)cccc1-n1ncc(C(=O)Nc2cnc(-n3nccn3)c(C#N)c2)c1C(F)(F)F
Q: N#Cc1cc(NC(=O)c2cnn(-c3nc(N)ccc3C(F)(F)F)c2C(F)(F)F)cnc1-n1nccn1
// pick min by pIC50: P , Q Mark your answer with the label of the selected entry.
Q
